src = the supplement of paper PMC10567573

test: protein stability index of a GFP-peptide fusion (GPS, HEK-293T) (PSI 1-6); higher = more stable; conditions: treatment: MLN4924 1 uM, 8 h; c terminus: a fixed tail appended;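 note: 24-mer peptide tiles fused after GFP, lentivirally expressed, FACS-sorted into six equal bins by GFP/DsRed ratio, decoded by Illumina sequencing, PSI is the read-weighted mean bin number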
Assign protein stability index to each entry below.
Respond using a number only.

Query string: Name the recorded protein stability index for SPPVPGPSAALTTMQLFSKQNPSR [FBXO28] .
Result string: 4.33

Query string: Repeat with KSFSMANGMNAVMMHGRSYSLASG [RAB40C]
Result string: 3.03

Query string: Could you do the same for RGDGGIYIGSIMKGGAVAADGRIE [DVL3] , please?
Result string: 3.75

Query string: Request: RTRRLGNMKNGANDVKHHRWFRSV [PRKX]
Result string: 3.14

Query string: Also KPYACDECAKAFSRSAILIQHRRT [ZNF396] , if possible.
Result string: 2.37

Query string: Input KGAAAAAAASGAAGGGGGGAGAGA [INTS3]
Result string: 5.3

Query string: Similarly, TTSTLKAWLNEHRKNPYPTKGEKI [IRX6] ?
Result string: 3.37

Query string: Next up: GPQPTMEGDVLDTLEALGYKGPLL [FAM98B]
Result string: 4.07

Query string: Also, ILVYDIANRWSFDGIDRWIKEIDE [RAB40B] please.
Result string: 1.93

Query string: Next: QGFRTVLELVINYQQLCIYWTKYY [OAS1]
Result string: 2.79

Query string: Record: KLNLPDYHKIIKNPMDMGTIKKRL [BRD3]
Result string: 2.48

Query string: And for QGLIGSVEEQLAQLRCEMEQQNQE [KRT17] ?
Result string: 5.29

Query string: Then EDIVFETDHILESLYRDIRDIQDE [STX11] ?
Result string: 4.31

Query string: Cool, now FLHLRTHTEERPYECNHCGKGFRH [ZNF8]
Result string: 2.97

Query string: Thanks! And QEELTRINQSFTGAERKAALCELL [IQUB] ?
Result string: 3.63

Query string: Cool, now KSTSIQVIVKEGGLKLIQIQDNGT [MLH1]
Result string: 2.54

Query string: Please do the same for LRYTLWIPLYPLGCLAEAVSVIQS [HACD3] as well.
Result string: 3.11

Query string: Also need MMSVNGQAKTHTDSSEKELEPEAA [ACBD3] , thanks.
Result string: 5.38

Query string: Okay, and FHLDVEDYLSGVLILASELSRLSV [TSN] ?
Result string: 3.04

Query string: One more sequence: QEKKILELEKLAEKNIILEEKIQV [MTUS2]
Result string: 4.29

Query string: Cool, now DLPSSLLLPEDMALRNLPPLRAAH [SMG5]
Result string: 3.44

Query string: Also need ARRELQAEREALQARLRDVSRREG [ZBED3] , thanks.
Result string: 4.8

Query string: What do you get for NTCSVITTLKGHEGSVACLWWDPI [WDFY1] ?
Result string: 2.34

Query string: Record: LKDIHDDQDYLHSLGKARTAQVQK [FLOT1]
Result string: 4.56

Query string: Next record, please: SRWSEASRAILQRVQAAAFGPGQT [ALKBH7]
Result string: 3.19

Query string: Same lookup for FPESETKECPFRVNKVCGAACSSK [SERPINB5] , please.
Result string: 3.55

Query string: Please do the same for EVQAVHKNTTYDLIANIVHDGKPS [USP39] as well.
Result string: 3.87

Query string: Another: IVRLHDSISEEGFHYLVFDLVTGG [CAMK2B]
Result string: 2.65

Query string: Entry IVTTVTTVQSRPRIDGKLDSPSRS [C2CD2L] please
Result string: 3.49

Query string: Now the sequence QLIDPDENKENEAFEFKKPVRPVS [CDC25A]
Result string: 4.03

Query string: Follow-up item: QFILRVSPDLEWHAACLKCAECSQ [ISL2]
Result string: 2.19

Query string: Now consider YATLDLNAVKYVSNIKFCSFHPLQ [PDS5B] and answer again.
Result string: 2.18

Query string: Try NELVKCIEELCQKREELCRQIQEE [SSNA1] next.
Result string: 3.76

Query string: Repeat for the following sequence: EGSLWAVGTESQGRDWRHLPTITS [PXN]
Result string: 3.34

Query string: And for QVQSMVVGEVLKDIETACKLLNIT [SPDEF] ?
Result string: 2.39

Query string: Also SDPETKDFWLNMAALTEALQRQAE [FCHO1] , if possible.
Result string: 3.23

Query string: Field entry: WKNTKKMGVGKASASDGSSFVVAR [GLIPR2]
Result string: 3.71

Query string: Let us now turn to KEYAAKFIKKRRLSSSRRGVSREE [DAPK3]
Result string: 4.38

Query string: Another sequence: SSQESGEEAGSQENHPQESKGQPR [CHGB]
Result string: 5.73

Query string: Next: VEPETRAVIRWMHSFNFVLSANLH [CPN1]
Result string: 3.19

Query string: Repeat with IFSFGQLPLALVTWVPMFLSTLLA [SOAT2]
Result string: 2.72

Query string: Field entry: ATDMISIFEPPVRNSGIIGGKYLG [EFHC1]
Result string: 3.16

Query string: // same read-out, input: DKYVGVSSDSVGGFRYSERYDPEP [CLINT1]
Result string: 4.27

Query string: Proceed to LTNSEYRSEQSVKLRRQVIQVVLN [ZER1]
Result string: 2.44

Query string: MGSTESSEGRRVSFGVDEEERVRV [CHCHD6] , same question.
Result string: 5.22

Query string: What would you report for RYTQGTGGDEVDDSVSVNDIDLSL [ZC3H15] ?
Result string: 4.89

Query string: Also need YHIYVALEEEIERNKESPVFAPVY [HMOX1] , thanks.
Result string: 3.03

Query string: And the next one, GTDIVRGCDPLVKPVGRQACDLQP [ADAMTSL2] ?
Result string: 4.22

Query string: Next record, please: LKGSRVSILFGHENRVSTLRVSPD [GNB5]
Result string: 3.02

Query string: Try PTEGQGSLLTNWPSVPPTIKEEEN [MYBL2] next.
Result string: 5.42

Query string: Now consider SGYAGELGFRAFSGSGNRLDGKKK [UFD1] .
Result string: 4.74

Query string: Thanks! And AATGGATLAQTISEAAIGGAMLGQ [HDAC6] ?
Result string: 4.11

Query string: Same for DKSEYLEMEEGVKESLCAKEEKCQ [KCNA4]
Result string: 5.54
